# Experiment: physchem
# Format: physicochemical

{"columns": ["Compound", "logP"],
 "data": [
  ["Cn1nc(C(F)(F)C(F)(F)F)c(C(F)(F)F)c1C(=O)Nc1cc(F)c(S(C)(=O)=O)c(C(=O)NC2CC2)c1", "2.92^a)"],
  ["CCC(C)NC(=O)c1cc(NC(=O)c2c(C(F)(F)F)c(C(F)(F)C(F)(F)F)nn2C)ccc1Cl (stereo not shown)", "3.87^a)"],
  ["Cn1nc(C(F)(F)C(F)(F)F)c(C(F)(F)F)c1C(=O)Nc1ccc(Cl)c(C(N)=O)c1", "2.83^a)"],
  ["CC(NC(=O)c1cc(NC(=O)c2c(Br)c(C(F)(F)C(F)(F)F)nn2C)ccc1Cl)C(F)(F)F (stereo not shown)", "2.00^a)"]
]}
